Dear all, this message contains IC50 results, target or system human PDE1B (Homo sapiens (Human)).

Observe how each entry below is paired with its result.
Cc1oc2c(c1C)c1ncnn1c(=O)n2Cc1ccc(Cl)cc1 100 to 1000 nM
COc1ccc(Cn2c(=O)n3ncnc3c3cc(CN4C[C@@H](C)O[C@@H](C)C4)cnc32)c(Br)c1 1000 to 10000 nM

Param readout = IC50; param system = human PDE1B (Homo sapiens (Human)); param query = CC(C)CCc1cc2c(s1)n(Cc1ccccc1)c(=O)n1ncnc21 ; response: value
100 to 1000 nM

Param readout = IC50; param system = human PDE1B (Homo sapiens (Human)); param query = COc1ccc(Cn2c(=O)n3ncnc3c3cc(N4CCC(N(C)C)CC4)cnc32)cc1 ; response: value
100 to 1000 nM

###

systemName: human PDE1B (Homo sapiens (Human))
pIC50: −log10 of the molar value.
Each item that follows carries a reported pIC50.

Observe how each entry below is paired with its result.
COc1ccc(Cn2c(=O)n3ncnc3c3nc(CN4C[C@@H](C)O[C@@H](C)C4)cnc32)cc1 6.00 to 7.00
C[C@@H]1CN(Cc2cnc3c(c2)c2ncnn2c(=O)n3Cc2ccc(OC(F)F)cc2F)C[C@H](C)O1 6.00 to 7.00
Cc1ccccc1Cn1c(=O)n2ncnc2c2cc(CN3C[C@@H](C)O[C@@H](C)C3)cnc21 5.00 to 6.00
COc1ccc(Cn2c(=O)n3ncnc3c3cc(CN4CCN(C)CC4)cnc32)cc1 6.00 to 7.00
CSc1ccc(Cn2c(=O)n3ncnc3c3cc(CN4C[C@@H](C)O[C@@H](C)C4)cnc32)cc1 6.00 to 7.00
COc1ccc(Cn2c(=O)n3ncnc3c3cc(CN4CC5CCC(C4)O5)cnc32)cc1 6.00 to 7.00

// lookup pIC50 for C[C@@H]1CN(Cc2cnc3c(c2)c2ncnn2c(=O)n3Cc2ccc(F)c(F)c2)C[C@H](C)O1
6.00 to 7.00

// lookup pIC50 for O=c1n(Cc2ccc(Cl)cc2)c2ncc(CN3CCCCC3)cc2c2ncnn12
5.00 to 6.00

###

Dear all, this message contains IC50 results, target or system human PDE1B (Homo sapiens (Human), UniProt Q01064).

molecule	IC50
COc1ccc(Cn2c(=O)n3ncnc3c3cc(-c4ccc(OC)nc4)cnc32)cc1 [Example 190]	0.1 to 1 µM
COc1ccc(Cn2c(=O)n3ncnc3c3ncc(CN4CCOCC4)cc32)cc1 [Example 241]	1 to 10 µM
COc1ccc(Cn2c(=O)n3ncnc3c3cc(C(F)CN4CCOCC4)cnc32)cc1 (stereo not shown) [Example 269]	0.1 to 1 µM

Param readout = IC50; param system = human PDE1B (Homo sapiens (Human), UniProt Q01064); param query = O=c1n(Cc2ccc(Cl)cc2)c2ncc(CN3CCOCC3)cc2c2ncnn12 [Example 208] ; response: value
0.1 to 1 µM

###

systemName: human PDE1B (Homo sapiens (Human), UniProt Q01064)
assayName: PDE1B inhibitory assay (IMAP TR-FRET)
measurementConditions: negative log of half-maximal molar inhibitory concentration; 200 nM FAM-cAMP, Calmodulin, CaCl2
Each item that follows carries a reported PDE1B pIC50.

Observe how each entry below is paired with its result.
compound	PDE1B pIC50
C[C@@H]1CN(Cc2cnc3c(c2)c2ncnn2c(=O)n3Cc2ccc(N3CCCC3=O)cc2)C[C@H](C)O1	<5
COc1ccc(Cn2c(=O)n3ncnc3c3c4c(sc32)N(CC2CCOCC2)CCC4)cc1	>7
O=C(C1CC1)N1CCc2c(sc3c2c2ncnn2c(=O)n3Cc2ccc(Cl)cc2F)C1	>7
C[C@@H]1CN(Cc2cnc3c(c2)c2ncnn2c(=O)n3Cc2ccc3cnn(C)c3c2)C[C@H](C)O1	<5
COc1ccc(Cn2c(=O)n3ncnc3c3cc(CN4C[C@@H](C)O[C@@H](C)C4)sc32)cc1	>7
COc1ccc(Cn2c(=O)n3ncnc3c3c4c(sc32)CN(Cc2ccccn2)CCC4)cc1	>7
COc1ccc(Cn2c(=O)n3ncnc3c3c(C)c(CN(C)C)sc32)cc1	>7
COc1ccc(Cn2c(=O)n3ncnc3c3c4c(sc32)CN(Cc2nnc(C)s2)CC4)cc1	>7
COc1c(F)cc(Cn2c(=O)n3ncnc3c3c4c(sc32)COCC4)cc1F	<5
C[C@@H]1CN(Cc2cnc3c(c2)c2ncnn2c(=O)n3Cc2ccccc2OC(F)F)C[C@H](C)O1	<5

// lookup PDE1B pIC50 for COc1ccc(Cn2c(=O)n3ncnc3c3c(C)c(CN4CCN(C(C)C)CC4)sc32)cc1
>7

###

systemName: UniProtKB Q01064
assayName: PDE1B inhibitory assay (IMAP TR-FRET)
measurementConditions: negative log of half-maximal molar inhibitory concentration; 200 nM FAM-cAMP, Calmodulin, CaCl2
Each item that follows carries a reported PDE1B pIC50.

Observe how each entry below is paired with its result.
molecule	PDE1B pIC50
C[C@@H]1CN(Cc2cnc3c(c2)c2ncnn2c(=O)n3Cc2ccc(C(C)(C)C)cc2)C[C@H](C)O1 [Example 280]	<5
COc1ccc(Cn2c(=O)n3ncnc3c3c4c(sc32)CN(Cc2ccncc2)CC4)cc1 [Example 121]	>7
COc1ccc(Cn2c(=O)n3ncnc3c3cc(CN4CCN(S(C)(=O)=O)CC4)sc32)cc1 [Example 35]	>7

// below: PDE1B pIC50 requested for another molecule
// lookup PDE1B pIC50 for COc1ccc(Cn2c(=O)n3ncnc3c3c4c(sc32)CN(C(=O)C2CCOC2)CC4(F)F)cc1 (centres unmarked) [Example 166]
>7

###

systemName: human PDE1B (Homo sapiens (Human), UniProt Q01064)
pIC50: −log10 of the molar value.
measuredMetric: pIC50

Param readout = pIC50; param system = human PDE1B (Homo sapiens (Human), UniProt Q01064); param query = C=C(OCC)c1cnc2c(c1)c1ncnn1c(=O)n2Cc1ccc(OC)cc1 [Example 216] ; response: value
6.00 to 7.00

###

pIC50: −log10 of the molar value.
Dear all, this message contains pIC50 results, target or system human PDE1B (Homo sapiens (Human)).

Param readout = pIC50; param system = human PDE1B (Homo sapiens (Human)); param query = COc1ccc(Cn2c(=O)n3ncnc3c3ncc(CN4CCSCC4)cc32)cc1 [Example 243] ; response: value
5.00 to 6.00

Param readout = pIC50; param system = human PDE1B (Homo sapiens (Human)); param query = Cc1csc2c1c1ncnn1c(=O)n2Cc1ccccc1Cl [Example 10] ; response: value
5.00 to 6.00

Param readout = pIC50; param system = human PDE1B (Homo sapiens (Human)); param query = COc1ccc(Cn2c(=O)n3ncnc3c3c4c(sc32)NCCC4)cc1OC [Example 100] ; response: value
5.00 to 6.00

Param readout = pIC50; param system = human PDE1B (Homo sapiens (Human)); param query = O=c1n(Cc2ccc(Cl)cc2F)c2sc3c(c2c2ncnn12)CCOC3 [Example 94] ; response: value
6.00 to 7.00

Param readout = pIC50; param system = human PDE1B (Homo sapiens (Human)); param query = C[C@@H]1CN(Cc2cnc3c(c2)c2ncnn2c(=O)n3Cc2cc(F)cc(F)c2)C[C@H](C)O1 [Example 285] ; response: value
5.00 to 6.00

Param readout = pIC50; param system = human PDE1B (Homo sapiens (Human)); param query = COc1ccc(Cn2c(=O)n3ncnc3c3ccc(CN4C[C@@H](C)O[C@@H](C)C4)nc32)cc1 [Example 257] ; response: value
6.00 to 7.00

Param readout = pIC50; param system = human PDE1B (Homo sapiens (Human)); param query = COc1ccc(Cn2c(=O)n3ncnc3c3nc(N(C)CCN(C)C)cnc32)cc1 [Example 196] ; response: value
5.00 to 6.00

Param readout = pIC50; param system = human PDE1B (Homo sapiens (Human)); param query = COc1ccc(Cn2c(=O)n3ncnc3c3cc(CN(C)C4CCCCC4)cnc32)cc1 [Example 235] ; response: value
5.00 to 6.00

Param readout = pIC50; param system = human PDE1B (Homo sapiens (Human)); param query = COc1ccc(Cn2c(=O)n3ncnc3c3cc(CN4CCN(C(=O)C5CCOC5)CC4)cnc32)cc1 (stereo not drawn) [Example 255] ; response: value
6.00 to 7.00

Param readout = pIC50; param system = human PDE1B (Homo sapiens (Human)); param query = COc1ccc(Cn2c(=O)n3ncnc3c3c4c(sc32)CN(C(C)C(F)F)CC4)cc1 (stereo not drawn) [Example 151] ; response: value
6.00 to 7.00

Param readout = pIC50; param system = human PDE1B (Homo sapiens (Human)); param query = COc1ccc(Cn2c(=O)n3ncnc3c3ncc(CN4C[C@@H](C)O[C@@H](C)C4)cc32)cc1 [Example 244] ; response: value
5.00 to 6.00

Param readout = pIC50; param system = human PDE1B (Homo sapiens (Human)); param query = O=c1n(Cc2ccc(Cl)c(F)c2)c2sc3c(c2c2ncnn12)CCOC3 [Example 93] ; response: value
6.00 to 7.00

Param readout = pIC50; param system = human PDE1B (Homo sapiens (Human)); param query = COc1ccc(Cn2c(=O)n3ncnc3c3cc(C(O)CN4CCOCC4)cnc32)cc1 (stereo not drawn) [Example 267] ; response: value
6.00 to 7.00

Param readout = pIC50; param system = human PDE1B (Homo sapiens (Human)); param query = O=c1n(Cc2ccc(-c3ccccc3)cc2)c2sc3c(c2c2ncnn12)CCCC3 [Example 86] ; response: value
5.00 to 6.00

Param readout = pIC50; param system = human PDE1B (Homo sapiens (Human)); param query = COc1ccc(Cn2c(=O)n3nccc3c3cc(CN4CCOCC4)sc32)cc1 [Example 183] ; response: value
6.00 to 7.00

Param readout = pIC50; param system = human PDE1B (Homo sapiens (Human)); param query = COc1ccc(Cn2c(=O)n3ncnc3c3cc(CN(C)C)sc32)cc1 [Example 30] ; response: value
6.00 to 7.00

Param readout = pIC50; param system = human PDE1B (Homo sapiens (Human)); param query = COc1ccc(Cn2c(=O)n3ncnc3c3cc(CCNC4CCOCC4)cnc32)cc1 [Example 212] ; response: value
5.00 to 6.00

Param readout = pIC50; param system = human PDE1B (Homo sapiens (Human)); param query = COc1ccc(Cn2c(=O)n3ncnc3c3ccc(CN4CCN(S(C)(=O)=O)CC4)nc32)cc1 [Example 261] ; response: value
6.00 to 7.00

Param readout = pIC50; param system = human PDE1B (Homo sapiens (Human)); param query = COc1ccc(Cn2c(=O)n3ncnc3c3cc(CCNC(C)c4ccccc4)cnc32)cc1 (stereo not drawn) [Example 213] ; response: value
6.00 to 7.00

Param readout = pIC50; param system = human PDE1B (Homo sapiens (Human)); param query = COCCN(C)Cc1cnc2c(c1)c1ncnn1c(=O)n2Cc1ccc(OC)cc1 [Example 245] ; response: value
6.00 to 7.00

Param readout = pIC50; param system = human PDE1B (Homo sapiens (Human)); param query = Cc1csc2c1c1ncnn1c(=O)n2Cc1ccc(Cl)cc1 [Example 3] ; response: value
6.00 to 7.00

Param readout = pIC50; param system = human PDE1B (Homo sapiens (Human)); param query = COc1ccc(Cn2c(=O)n3ncnc3c3c4c(sc32)CN(C(=O)C2CCNC2)CC4)cc1 (stereo not drawn) [Example 181] ; response: value
6.00 to 7.00
